Sourced from patent US8299252B2

- assayed.target: FLT3 intracellular domain protein (Homo sapiens)
- Sequence (P36888 564-993 limits assumed): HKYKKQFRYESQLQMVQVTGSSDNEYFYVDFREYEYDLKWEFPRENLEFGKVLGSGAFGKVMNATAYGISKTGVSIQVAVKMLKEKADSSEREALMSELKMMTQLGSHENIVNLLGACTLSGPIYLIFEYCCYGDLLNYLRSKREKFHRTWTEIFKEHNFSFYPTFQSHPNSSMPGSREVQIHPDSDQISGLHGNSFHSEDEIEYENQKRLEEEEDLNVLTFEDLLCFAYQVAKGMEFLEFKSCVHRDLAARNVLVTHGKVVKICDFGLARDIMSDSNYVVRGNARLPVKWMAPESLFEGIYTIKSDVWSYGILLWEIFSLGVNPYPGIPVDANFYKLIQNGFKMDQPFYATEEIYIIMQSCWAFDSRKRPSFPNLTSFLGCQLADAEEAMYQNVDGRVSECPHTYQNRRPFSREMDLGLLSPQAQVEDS
- experiment: Flt3 enzyme inhibition test (HTRF)
- condition.parameters: phosphorylation of biotinylated peptide

# given.smiles, measurement.unit, IC50
data = [
    ("O=C(Nc1ccc(Oc2ccnc3[nH]ccc23)cc1)Nc1ccc2c(CCF)cccc2c1", "nM", 6),
    ("O=C(Nc1ccc(Oc2ccnc3[nH]ccc23)cc1)Nc1ccc(OC2CCOCC2)c(C(F)(F)F)c1", "nM", 6.9),
    ("O=C(Nc1ccc(Oc2ccnc3[nH]ccc23)cc1)Nc1cc(CCF)cc(C(F)(F)F)c1", "nM", 14),
]

----------
- System: human umbilical vein endothelial cells (HUVEC), VEGF-independent proliferation
- experiment: VEGF-independent HUVEC proliferation inhibition assay
- Type: cell-based
- condition.parameters: read-out: 50% proliferation inhibitory concentration (IC50 value) HUVEC (VEGF-independent), vascular endothelial cell growth-promoting agent and heparin, 72 hours, WST-1
Consider the following partition of reported IC50 into named classes: low end: < 900 nM; middle: ≥ 900 nM and < 3000 nM; high end: ≥ 3000 nM

# given.smiles, category.label
data = [
    ("COCCOc1cccc2cc(NC(=O)Nc3ccc(Oc4ccnc5[nH]ccc45)cc3)ccc12", "high end"),
    ("C=Cc1ccc(NC(=O)Nc2ccc(Oc3ccnc4[nH]ccc34)cc2)cc1C(F)(F)F", "high end"),
    ("O=C(Nc1ccc(Oc2ccnc3[nH]ccc23)cc1)Nc1ccc(CCCF)c(C(F)(F)F)c1", "low end"),
    ("O=C(Nc1ccc(Oc2ccnc3[nH]ccc23)cc1)Nc1cc(OC2CCOCC2)cc(C(F)(F)F)c1", "middle"),
    ("O=C(Nc1ccc(Oc2ccnc3[nH]ccc23)cc1)Nc1ccc(CCF)c(C(F)(F)F)c1", "low end"),
    ("O=C(Nc1ccc(Oc2ccnc3[nH]ccc23)cc1)Nc1ccc2c(CCCF)cccc2c1", "high end"),
    ("O=C(Nc1ccc(Oc2ccnc3[nH]ccc23)cc1)Nc1cc(CCF)cc(C(F)(F)F)c1", "low end"),
    ("COCCOc1ccc(NC(=O)Nc2ccc(Oc3ccnc4[nH]ccc34)cc2)cc1C(F)(F)F", "middle"),
    ("O=C(Nc1ccc(Oc2ccnc3[nH]ccc23)cc1)Nc1cc(CCCF)cc(C(F)(F)F)c1", "middle"),
    ("O=C(Nc1ccc(Oc2ccnc3[nH]ncc23)cc1)Nc1ccc(CCCF)c(C(F)(F)F)c1", "low end"),
]

----------
A collection of compounds and their measured inhibition at 0.0064 µM
- Test system: tube formation of human-derived vascular endothelial cells (HUVEC)
- experiment: Tube formation inhibition test (angiogenesis assay kit, KURABO)
- Assay type: cell-based
- condition.parameters: 264 h, final concentration 6.4 nM, 11 days, read-out: Tube formation inhibition ratio (%)
property.measured: inhibition at 0.0064 µM (%)

# compound, assayed.target, observed.measurement
data = [
    ("O=C(Nc1ccc(Oc2ccnc3[nH]ccc23)cc1)Nc1ccc(CCF)c(C(F)(F)F)c1 [Compound 21]", "tube formation of human-derived vascular endothelial cells (HUVEC)", 100),
    ("COCCOc1ccc(NC(=O)Nc2ccc(Oc3ccnc4[nH]ccc34)cc2)cc1C(F)(F)F [Compound 1]", "tube formation of human-derived vascular endothelial cells (HUVEC)", 98),
    ("O=C(Nc1ccc(Oc2ccnc3[nH]ccc23)cc1)Nc1ccc(CCCF)c(C(F)(F)F)c1 [Compound 11]", "tube formation of human-derived vascular endothelial cells (HUVEC)", 82),
    ("O=C(Nc1ccc(Oc2ccnc3[nH]ccc23)cc1)Nc1cc(CCF)cc(C(F)(F)F)c1 [Compound 22]", "tube formation of human-derived vascular endothelial cells (HUVEC)", 96),
    ("O=C(Nc1ccc(Oc2ccnc3[nH]ncc23)cc1)Nc1ccc(CCCF)c(C(F)(F)F)c1 [Compound 19]", "tube formation of human-derived vascular endothelial cells (HUVEC)", 98),
    ("O=C(Nc1ccc(Oc2ccnc3[nH]ccc23)cc1)Nc1ccc(CCC(F)F)c(C(F)(F)F)c1 [Compound 12]", "tube formation of human-derived vascular endothelial cells (HUVEC)", 81),
    ("O=C(Nc1ccc(Oc2ccnc3[nH]ccc23)cc1)Nc1ccc(OC2CCOCC2)c(C(F)(F)F)c1 [Compound 7]", "tube formation of human-derived vascular endothelial cells (HUVEC)", 99),
    ("COCCOc1ccc(NC(=O)Nc2ccc(Oc3ccnc4[nH]ncc34)cc2)cc1C(F)(F)F [Compound 2]", "tube formation of human-derived vascular endothelial cells (HUVEC)", 82),
    ("O=C(Nc1ccc(Oc2ccnc3[nH]ccc23)cc1)Nc1ccc(OCCF)c(C(F)(F)F)c1 [Compound 15]", "tube formation of human-derived vascular endothelial cells (HUVEC)", 100),
]

----------
A collection of molecules and their measured Cmax
- experiment: Pharmacokinetics test, oral administration
- Assay type: in vivo
- condition.parameters: female, Balb/c nude, mouse, 100 mg/kg, plasma

# molecule, Cmax / ng/mL
records = [
    ("CNC(=O)c1cc(Oc2ccc(NC(=O)Nc3ccc(Cl)c(C(F)(F)F)c3)cc2)ccn1 [Compound A, BAY 43-9006, reference compound]", 19200),
    ("O=C(Nc1ccc(Oc2ccnc3[nH]ccc23)cc1)Nc1ccc(CCC(F)F)c(C(F)(F)F)c1", 22700),
]

----------
- experiment: Solubility in fasted state simulated intestinal fluid
- Type: physicochemical
- condition.parameters: pH 6.5, fassif, kinetic from dmso stock, fasted state simulated intestinal fluid (pH6.5), 37° C.

# compound, solubility at 20 h, µg/mL
data = [
    ("O=C(Nc1ccc(Oc2ccnc3[nH]ccc23)cc1)Nc1ccc(CCCF)c(C(F)(F)F)c1", 14),
    ("O=C(Nc1ccc(Oc2ccnc3[nH]ccc23)cc1)Nc1cc(C(F)(F)F)cc(C(F)(F)F)c1", 35),
    ("O=C(Nc1ccc(Oc2ccnc3[nH]ncc23)cc1)Nc1cc(CCF)cc(C(F)(F)F)c1", 19),
    ("O=C(Nc1ccc(Oc2ccnc3[nH]ccc23)cc1)Nc1ccc(CCC(F)F)c(C(F)(F)F)c1", 15),
    ("O=C(Nc1ccc(Oc2ccnc3[nH]ncc23)cc1)Nc1ccc(CCCCF)c(C(F)(F)F)c1", 18),
    ("O=C(Nc1ccc(Oc2ccnc3[nH]ccc23)cc1)Nc1ccc(CCCCF)c(C(F)(F)F)c1", 21),
    ("O=C(Nc1ccc(Oc2ccnc3[nH]ncc23)cc1)Nc1ccc(CCCF)c(C(F)(F)F)c1", 16),
    ("O=C(Nc1ccc(Oc2ccnc3[nH]ccc23)cc1)Nc1ccc(CF)c(C(F)(F)F)c1", 15),
    ("CNC(=O)c1cc(Oc2ccc(NC(=O)Nc3ccc(Cl)c(C(F)(F)F)c3)cc2)ccn1 [Compound A, BAY 43-9006, reference compound]", 6),
    ("O=C(Nc1ccc(Oc2ccnc3[nH]ccc23)cc1)Nc1ccc(OCC(F)(F)F)c(C(F)(F)F)c1", 15),
    ("O=C(Nc1ccc(Oc2ccnc3[nH]ccc23)cc1)Nc1cc(CCF)cc(C(F)(F)F)c1", 16),
    ("O=C(Nc1ccc(Oc2ccnc3[nH]ccc23)cc1)Nc1ccc(OC(F)(F)F)c(C(F)(F)F)c1", 25),
]

----------
A collection of molecules and their measured pIC50
- assayed.target: KDR intracellular domain protein (Homo sapiens, UniProt P35968)
- Sequence (P35968 786-1356 limits assumed): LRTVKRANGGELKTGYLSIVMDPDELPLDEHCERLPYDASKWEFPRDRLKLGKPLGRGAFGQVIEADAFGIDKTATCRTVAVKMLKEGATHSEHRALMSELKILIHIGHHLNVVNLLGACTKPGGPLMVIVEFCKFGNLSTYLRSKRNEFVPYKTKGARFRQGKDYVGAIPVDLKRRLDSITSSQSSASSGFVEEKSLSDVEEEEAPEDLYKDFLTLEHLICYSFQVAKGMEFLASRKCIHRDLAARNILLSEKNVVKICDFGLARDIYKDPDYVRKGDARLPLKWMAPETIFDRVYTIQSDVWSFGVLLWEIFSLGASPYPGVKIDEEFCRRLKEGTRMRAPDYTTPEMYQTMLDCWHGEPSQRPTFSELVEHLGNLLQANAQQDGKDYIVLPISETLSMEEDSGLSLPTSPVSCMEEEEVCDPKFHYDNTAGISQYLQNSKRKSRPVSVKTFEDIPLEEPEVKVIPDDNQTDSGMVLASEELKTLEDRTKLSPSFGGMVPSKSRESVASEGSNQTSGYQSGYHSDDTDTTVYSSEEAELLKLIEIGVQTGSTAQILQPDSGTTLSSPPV
- experiment: KDR enzyme inhibition assay (biotinylated peptide phosphorylation, HTRF)
- condition.parameters: phosphorylation of biotinylated peptide
- Protocol: The compounds according to the present invention were measured for Raf-1 and KDR enzyme inhibitory activities. The Raf-1 inhibitory activity was measured by the activity of Raf-1 protein for inhibiting phosphorylation of MEK-1 protein having six histidine residues (His6) fused to the N-terminus thereof. […] The KDR inhibitory activity was measured by the activity of KDR intracellular domain protein for inhibiting phosphorylation of a biotinylated peptide ([…]).
pIC50: −log10 of the molar value.

# given.smiles, assayed.target, pIC50
data = [
    ("O=C(Nc1ccc(Oc2ccnc3[nH]ncc23)cc1)Nc1ccc(CCF)c(C(F)(F)F)c1", "KDR intracellular domain protein (Homo sapiens, UniProt P35968)", 8.43),
    ("O=C(Nc1ccc(Oc2ccnc3[nH]ccc23)cc1)Nc1cc(CCCF)cc(C(F)(F)F)c1", "KDR intracellular domain protein (Homo sapiens, UniProt P35968)", 8.04),
    ("CCc1ccc(NC(=O)Nc2ccc(Oc3ccnc4[nH]ccc34)cc2)cc1C(F)(F)F", "KDR intracellular domain protein (Homo sapiens, UniProt P35968)", 8.07),
    ("O=C(Nc1ccc(Oc2ccnc3[nH]ccc23)cc1)Nc1ccc(CF)c(C(F)(F)F)c1", "KDR intracellular domain protein (Homo sapiens, UniProt P35968)", 9.46),
    ("O=C(Nc1ccc(Oc2ccnc3[nH]ccc23)cc1)Nc1cc(CCC(F)F)cc(C(F)(F)F)c1", "KDR intracellular domain protein (Homo sapiens, UniProt P35968)", 9.02),
    ("O=C(Nc1ccc(Oc2ccnc3[nH]ccc23)cc1)Nc1cc(CCF)cc(C(F)(F)F)c1", "KDR intracellular domain protein (Homo sapiens, UniProt P35968)", 8.44),
    ("O=C(Nc1ccc(Oc2ccnc3[nH]ccc23)cc1)Nc1cc(CCCC(F)F)cc(C(F)(F)F)c1", "KDR intracellular domain protein (Homo sapiens, UniProt P35968)", 8.46),
    ("O=C(Nc1ccc(Oc2ccnc3[nH]ccc23)cc1)Nc1cc(OC2CCOCC2)cc(C(F)(F)F)c1", "KDR intracellular domain protein (Homo sapiens, UniProt P35968)", 8.66),
    ("C=Cc1ccc(NC(=O)Nc2ccc(Oc3ccnc4[nH]ccc34)cc2)cc1C(F)(F)F", "KDR intracellular domain protein (Homo sapiens, UniProt P35968)", 7.80),
    ("O=C(Nc1ccc(Oc2ccnc3[nH]ccc23)cc1)Nc1cc(CCCCF)cc(C(F)(F)F)c1", "KDR intracellular domain protein (Homo sapiens, UniProt P35968)", 8.89),
]
